TARGET: Tyrosine-protein kinase Lyn (Homo sapiens) (UniProt P07948);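 also: mean inhibition of the LYN A splice variant of the kinase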
Sequence (P07948 2-512 limits assumed): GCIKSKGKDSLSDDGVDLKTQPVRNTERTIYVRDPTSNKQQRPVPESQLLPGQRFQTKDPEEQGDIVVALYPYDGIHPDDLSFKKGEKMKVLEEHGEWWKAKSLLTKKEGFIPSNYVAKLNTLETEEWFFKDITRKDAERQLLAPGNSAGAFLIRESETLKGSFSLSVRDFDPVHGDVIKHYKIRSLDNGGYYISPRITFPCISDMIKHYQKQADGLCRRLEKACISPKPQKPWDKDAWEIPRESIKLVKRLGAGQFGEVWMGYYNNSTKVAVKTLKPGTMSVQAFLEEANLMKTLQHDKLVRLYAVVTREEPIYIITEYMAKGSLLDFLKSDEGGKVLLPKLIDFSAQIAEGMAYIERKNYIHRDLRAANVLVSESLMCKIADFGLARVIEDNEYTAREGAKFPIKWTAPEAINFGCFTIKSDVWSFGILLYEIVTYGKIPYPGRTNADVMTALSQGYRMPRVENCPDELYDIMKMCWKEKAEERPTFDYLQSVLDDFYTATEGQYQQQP
PARTICULARS: at 0.1 µM
Description: GSK_PKIS: LYN A (splice variant) mean inhibition at 0.1 uM [Nanosyn]
MEASURE: inhibition (%)
// return numeric value only (unit: %, not printed)

• NS(=O)(=O)c1cccc(Nc2cc(-c3ccc(F)cc3)n[nH]2)c1 = 5.86
• FC(F)(F)c1ccc(-c2nn3ncccc3c2-c2ccnc(Nc3ccc4c(c3)OCCO4)n2)cc1 = 6.84
• CCS(=O)(=O)c1ccc(OC)c(Nc2ncc(-c3cccc(OC)c3)o2)c1 = 20.2
• CCn1c(-c2nonc2N)nc2c(C#CC(C)(C)O)nc(OCCNC)cc21 = 5.06
• CCOc1nccc2c1nc(-c1nonc1N)n2CC = 3.8
• [O-][S+]1CCN(Cc2ccc(-c3ccc4ncnc(Nc5ccc(OCc6ccccc6)c(Cl)c5)c4c3)o2)CC1 = 1.18

Could you share which inhibition value was measured for CN1CCN(C(=O)c2ccc(NC(=O)Nc3ccc(N(C)c4ccnc(Nc5ccc(CS(C)(=O)=O)cc5)n4)cc3)cc2)CC1 ?
2.45

// repeat for c1ccc(Nc2ncc(-c3ccccc3)o2)cc1 and report
5.9

// repeat for Cc1cc(O)cc(C)c1/C=C/c1cncc(C(=O)N(C)C)c1 and report
4.08

// repeat for COc1cccc(-n2ncc3c(N/N=C/c4ccc(C)cc4)ncnc32)c1 and report
9.2

// repeat for Nc1nccc(-c2c(-c3ccc(F)cc3)ncn2CCCN2CCOCC2)n1 and report
5.23

// repeat for COc1cc(Nc2nccc(-c3cnn4ncccc34)n2)cc(OC)c1 and report
3.81

// repeat for ON=C1CCc2cc(-c3nc(C4CCNCC4)[nH]c3-c3ccncc3)ccc21 and report
0.17

// repeat for CN(C)c1cc2c(Nc3ccc4c(cnn4Cc4ccccc4)c3)ncnc2cn1 and report
2.67

// repeat for COc1ccc2ncnc(Nc3ccc(OCc4ccccc4)cc3)c2c1 and report
2.3

// repeat for CC(C)c1ccc(Nc2nccc(-c3cnn4ncccc34)n2)cc1 and report
4.07

// repeat for NC(=O)c1sc(-n2cnc3ccccc32)cc1OCc1ccccc1Br and report
4.01

// repeat for Cc1ccc(O)cc1Nc1ccnc2ccc(S(C)(=O)=O)cc12 and report
93.2

// repeat for CCS(=O)(=O)c1ccc(OC)c(Nc2nccc(N(C)c3ccc4c(C)n[nH]c4c3)n2)c1 and report
45.7

The measurements presented in this section are drawn from ChEMBL document CHEMBL1961873.
